Measured Ki, listed per entry.
- Target entity: GST-MCL-1 (Homo sapiens, UniProt Q07820)
- Sequence (Q07820 whole entry): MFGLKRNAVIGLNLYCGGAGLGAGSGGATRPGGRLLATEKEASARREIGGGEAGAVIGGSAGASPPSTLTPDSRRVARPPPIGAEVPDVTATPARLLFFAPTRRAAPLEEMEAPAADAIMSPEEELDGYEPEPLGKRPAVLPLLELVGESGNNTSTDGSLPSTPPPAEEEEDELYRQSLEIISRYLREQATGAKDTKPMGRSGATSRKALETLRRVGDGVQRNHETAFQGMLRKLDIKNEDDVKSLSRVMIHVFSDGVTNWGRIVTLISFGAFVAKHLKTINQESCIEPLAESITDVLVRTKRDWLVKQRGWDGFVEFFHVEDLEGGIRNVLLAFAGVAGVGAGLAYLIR
- Test description: TR-FRET MCL-1 binding assay (competition with probe F-Bak)
- Measurement context: without HS; read-out: MCL-1 Binding Ki

Molecule | Ki (nM)
COCCOCCOCCOC[C@]1(F)CC[C@@H](c2nccc(COc3ccc4cc3C[C@H](C(=O)O)Oc3ncnc5sc(-c6ccc(F)cc6)c(c35)-c3c(C)c(Cl)c(c(Cl)c3C)O[C@H](CN3CCN(C)CC3)CO4)n2)CC1 | 1.99
COCCOCCOCCOCCOCCOC[C@]1(F)CC[C@@H](c2nccc(COc3ccc4cc3C[C@H](C(=O)O)Oc3ncnc5sc(-c6ccc(F)cc6)c(c35)-c3c(C)c(Cl)c(c(Cl)c3C)O[C@H](CN3CCN(C)CC3)CO4)n2)CC1 | 0.016
CO[C@@H]1CO[C@H]2[C@@H]1OC[C@H]2OCCOCCOc1ccc(-c2nccc(COc3ccc4cc3C[C@H](C(=O)O)Oc3ncnc5sc(-c6ccc(F)cc6)c(c35)-c3c(C)c(Cl)c(c(Cl)c3C)O[C@H](CN3CCN(C)CC3)CO4)n2)cc1 | 0.008
COCCOCCOCCOCCN1CCN(C[C@@H]2COc3ccc(OCc4ccnc(-c5ccccc5OC)n4)c(c3)C[C@H](C(=O)O)Oc3ncnc4sc(-c5ccc(F)cc5)c(c34)-c3ccc(c(Cl)c3C)O2)CC1 (atropisomer, axis not shown) | 0.007
